// data source = patent US20260248972A1

# assay procedure: in vivo
# applied conditions: BALB/c nude, mouse, in vivo, iv, total radioactivity, % ID/g Liver
Below, each entry is listed alongside its reported tissue uptake at 72 h.
Report only the number, with the unit %ID/g understood.

| compound | tissue uptake at 72 h / %ID/g |
| --- | --- |
| C[C@@H](O)[C@H](NC(=O)[C@@H]1CSSC[C@H](NC(=O)[C@@H](Cc2ccccc2)NC(=O)[C@H](CCCCNC(=O)c2cccc(NC(=O)N[C@@H]3CN(C4CCCCC4)c4ccccc4N(CC(=O)C(C)(C)C)C3=O)c2)NC(=O)COCCOCCNC(=O)CN2CCN(CC(=O)O)CCN(CC(=O)O)CCN(CC(=O)O)CC2)C(=O)N[C@@H](Cc2ccc(O)cc2)C(=O)N[C@H](Cc2c[nH]c3ccccc23)C(=O)N[C@@H](CCCCN)C(=O)N[C@@H]([C@@H](C)O)C(=O)N1)C(=O)O [^177Lu-I-35, metal not drawn] | 2.41 |
| C[C@@H](O)[C@H](NC(=O)[C@@H]1CSSC[C@H](NC(=O)[C@@H](Cc2ccccc2)NC(=O)CN2CCN(CC(=O)O)CCN(CC(=O)O)CCN(CC(=O)O)CC2)C(=O)N[C@@H](Cc2ccc(O)cc2)C(=O)N[C@H](Cc2c[nH]c3ccccc23)C(=O)N[C@@H](CCCCN)C(=O)N[C@@H]([C@@H](C)O)C(=O)N1)C(=O)O [^177Lu-C-1, metal not drawn, reference compound] | 0.06 |

// next entry
[ask] Which measured tissue uptake at 72 h value corresponds to C[C@@H](O)[C@H](NC(=O)[C@@H]1CSSC[C@H](NC(=O)[C@@H](Cc2ccccc2)NC(=O)[C@H](CCCCNC(=O)COCCOCCNC(=O)c2cccc(NC(=O)N[C@@H]3CN(C4CCCCC4)c4ccccc4N(CC(=O)C(C)(C)C)C3=O)c2)NC(=O)CN2CCN(CC(=O)O)CCN(CC(=O)O)CCN(CC(=O)O)CC2)C(=O)N[C@@H](Cc2ccc(O)cc2)C(=O)N[C@H](Cc2c[nH]c3ccccc23)C(=O)N[C@@H](CCCCN)C(=O)N[C@@H]([C@@H](C)O)C(=O)N1)C(=O)O [^177Lu-I-36, metal not drawn] ?
[reply] 3.99
